- target: Cocaine esterase (Homo sapiens, UniProt O00748)
- Sequence (O00748 whole entry): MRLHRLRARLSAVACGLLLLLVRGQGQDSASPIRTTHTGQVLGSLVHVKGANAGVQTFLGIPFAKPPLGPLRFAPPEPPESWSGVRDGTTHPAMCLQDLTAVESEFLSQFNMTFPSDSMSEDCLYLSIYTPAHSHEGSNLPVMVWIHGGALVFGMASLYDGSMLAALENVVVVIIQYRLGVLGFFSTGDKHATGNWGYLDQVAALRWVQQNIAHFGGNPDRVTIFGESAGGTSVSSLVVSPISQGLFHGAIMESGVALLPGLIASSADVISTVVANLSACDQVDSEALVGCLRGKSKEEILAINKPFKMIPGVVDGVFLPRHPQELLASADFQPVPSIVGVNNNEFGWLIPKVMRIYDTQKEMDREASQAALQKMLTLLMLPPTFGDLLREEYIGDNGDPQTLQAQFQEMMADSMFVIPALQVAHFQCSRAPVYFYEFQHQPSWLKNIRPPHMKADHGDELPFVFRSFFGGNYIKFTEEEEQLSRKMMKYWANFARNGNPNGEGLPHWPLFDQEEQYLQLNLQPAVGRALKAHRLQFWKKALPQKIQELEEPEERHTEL
- experimental-protocol: In vitro inhibition of carboxylesterase in human liver microsomes.
- Set-up: species or system Microsome
-Log IC50 strictly under 5 means rule met; at 5 or over means rule not met.

INSERT INTO measurements (compound, label_class) VALUES
  ('CCCCCC[S+]([O-])CC(=O)C(F)(F)F (stereo not given)', 'rule not met'),
  ('CCCCCCCCC(=O)CF', 'rule met'),
  ('CCCCCC[Se](=O)CC(C)=O (stereo not given)', 'rule not met'),
  ('CCCCCCCCC(=O)C(F)F', 'rule not met'),
  ('CCCCCCCCC(=O)C(F)(F)F', 'rule not met');
